Quick reference for ORAL LD50 among some molecules
Assay: Oral LD50 (Table 3)
Assay type: in vivo
A number alone suffices; assume mg/kg.

Would you please look over these solved cases?
>  <molecule>
O=c1ccccn1-c1ccccc1 [1-phenyl-2-(1H)-pyridone, reference compound]

>  <unit_tag>
mg/kg

>  <ORAL LD50>
540

$$$$
>  <molecule>
O=C1NC(=O)C(c2ccccc2)(c2ccccc2)N1 [phenytoin (Dilantin), phenytoin, reference compound]

>  <unit_tag>
mg/kg

>  <ORAL LD50>
490

$$$$
>  <molecule>
CCc1ccc(=O)n(-c2ccccc2)c1

>  <unit_tag>
mg/kg

>  <ORAL LD50>
425

$$$$
>  <molecule>
Cc1cccn(-c2ccccc2)c1=O

>  <unit_tag>
mg/kg

>  <ORAL LD50>
650

$$$$

Consider now this further molecule.
Exercise: Could you tell me which ORAL LD50 is on file for Cc1ccc(=O)n(-c2ccccc2)c1 ?
Key: 610

###

Test: Intraperitoneal LD50 (Table 2)
Format: in vivo
parameter_measured: I.P. LD50 (mg/kg)
A number alone suffices; assume mg/kg.

Would you please look over these solved cases?
>  <molecule>
CCc1ccc(=O)n(-c2ccccc2)c1

>  <I.P. LD50 / mg/kg>
500

$$$$
>  <molecule>
Cc1ccc(=O)n(-c2ccccc2)c1

>  <I.P. LD50 / mg/kg>
600

$$$$

Consider now this further molecule.
Exercise: Could you tell me which I.P. LD50 is on file for O=C1NC(=O)C(c2ccccc2)(c2ccccc2)N1 [phenytoin (Dilantin), phenytoin, reference compound] ?
Key: 200

###

System: maximal electroshock seizures
Experiment: Maximal electroshock seizure test
Assay type: in vivo
Conditions: albino mice, intraperitoneal, 140 minutes after injection of test compound
parameter_measured: I.P. ED50 (dose protecting 50% of mice against maximal electroshock seizures) (mg/kg)
A number alone suffices; assume mg/kg.

Would you please look over these solved cases?
>  <compound>
Cc1ccc(=O)n(-c2ccccc2)c1

>  <result_value>
85

$$$$
>  <compound>
CCc1ccc(=O)n(-c2ccccc2)c1

>  <result_value>
60

$$$$

Consider now this further compound.
Exercise: Could you tell me which I.P. ED50 (dose protecting 50% of mice against maximal electroshock seizures) is on file for O=C1NC(=O)C(c2ccccc2)(c2ccccc2)N1 [phenytoin (Dilantin), phenytoin, reference compound] ?
Key: 50
